Data origin, for the record: PubChem BioAssay (NCI)

Tested on: T-47D breast
Assay: NCI-60 one-dose screen, 48 h (100 = growth as untreated, 0 = no growth, -100 = all killed)
Conditions: 10 µM unless noted
Protocol: Growth inhibition of the T-47D human tumor cell line is measured as a screen for anti-cancer activity. Cells are grown in 96 well plates and exposed to the test compound for 48 hours. Compounds are tested at a single concentration, which is 10^-5 M for most compounds. The reported endpoint is percent growth (GI% or GIPRCNT), where numbers from 0 - 100% represent growth inhibition, and numbers from -100% - 0 represent cell death. For example, a value of 40 represents 60% growth inhibition. […]
This is part of a sample that, as a whole, favours compounds with a hit. Of some 83,000 tested, about 20% had one in any assay.
# label = true if growth >= 60% else false

Example cases with answers are listed next.
compound | test.system | label.class
O=C(/C=C/c1cccc(F)c1)c1cccc(OCCCCOc2cccc(C(=O)/C=C/c3cccc(F)c3)c2)c1 | T-47D breast | true
O=C(/C=C/c1cccc(Br)c1)c1cccc(OCCCCOc2cccc(C(=O)/C=C/c3cccc(Br)c3)c2)c1 | T-47D breast | true
O=C(NCCNc1cc(-c2cn(-c3ccccc3)nc2-c2cccc(O)c2)ccn1)Nc1cc(C(F)(F)F)cc(C(F)(F)F)c1 | T-47D breast | true
Clc1cccc(/C=N/Nc2nc(N/N=C/c3cccc(Cl)c3)nc(N3CCOCC3)n2)c1 | T-47D breast | true
COc1ccc(-c2c(C(N)=O)c(N)n(Cc3nc4ccccc4[nH]3)c(=O)c2C#N)c(OC)c1 | T-47D breast | true

[ask] Has O=C1CSC(c2cn(-c3ccccc3)nc2-c2ccc(Cl)cc2)N1c1ccccc1 (configuration not stated) a recorded growth greater than or equal to 60%?
[reply] true

[ask] Has COc1ccc([C@@H]2C(=O)N(c3cc(OC)c(OC)c(OC)c3)[C@H]2c2ccc(OC)c(O)c2)cc1 a recorded growth greater than or equal to 60%?
[reply] true

[ask] Has CN1CCN(Cc2ccc(NC(=O)c3cncc(C#Cc4cnc5ccc(OCCCS(C)(=O)=O)nn45)c3)cc2C(F)(F)F)CC1 a recorded growth greater than or equal to 60%?
[reply] false

[ask] Has CCN(CC)c1ccc(/C=N/NC(=O)c2ccc(S(N)(=O)=O)cc2)c(O)c1 a recorded growth greater than or equal to 60%?
[reply] false

[ask] Has NS(=O)(=O)c1ccc(Nc2nc(N/N=C/c3ccc4c(c3)OCO4)nc(Nc3ccccc3)n2)cc1 a recorded growth greater than or equal to 60%?
[reply] false
